# Tested on: MALME-3M melanoma
# PROTOCOL NOTES: NCI tumour cell line growth inhibition, 48 h
Hi there, I'd appreciate the recorded log10 of TGI for every entry that follows.
Values reflect log10 of reported TGI (µM).

Below are 3 compounds. Give each one its log10 of TGI.
1. CC[N+](CC)=c1sc2c(s1)C(c1ccc(Cl)cc1)Oc1ccc(Cl)cc1-2 (stereo unspecified)
2. CN(C)CC(C)(C)C(=O)/C=C/c1ccc(/C=C/C(=O)C(C)(C)CN(C)C)cc1
3. CCc1cccc(C)c1NC(=O)c1sc2nc3c(cc2c1N)CCCCC3

1. 0.59
2. 0.60
3. 1.93
